molecular target: T1, human IL-1β (human, UniProt P01584 117-269); experiment: BIAcore (SPR)
T1 construct: also called IL-1beta; hIL-1β
pKd: −log10 of the molar value.
Mark true (1) for reported pKd of 6 or greater; mark false (0) for anything smaller.

For orientation, consider the following solved cases.
{"BINDER": "ABT2-65 (other, VH dAb) VH: EVQLLESGGGLVQPGGSLRLSCAASGFTFEDYQMGWVRQAPGKGLEWVSSISAMGNRTYYADSVKGRFTISRDDSKNTLYLQMNSLRAEDTAVYYCAKNLVRTQSKMWMFDYWGQGTLVTVSS", "CLASS_NAME": "true (1)"}
{"BINDER": "ABT2-108 (other, VH dAb) VH: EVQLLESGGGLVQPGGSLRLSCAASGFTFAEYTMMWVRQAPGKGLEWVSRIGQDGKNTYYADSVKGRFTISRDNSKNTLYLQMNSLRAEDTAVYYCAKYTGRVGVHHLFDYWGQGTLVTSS", "CLASS_NAME": "true (1)"}
{"BINDER": "ABT2-46 (other, VK dAb) VL: DIQMTQSPSSLSASVGDRVTITCRASQSIIEWLSWYQQKPGKAPKLLIYRTSVLQSGVPSRFSGSGSGTDFTLTISSLQPEDFATYYCQQNEFWPFTFGQGTKVEIKR", "CLASS_NAME": "false (0)"}

Proceed to the following item.
Hi, just wondering whether ABT2-42 (other, VK dAb) VL: DIQMTQSPSSLSASVGDRVTITCRASQYIEKWLTWYQQKPGKAPTLLIYRGSLLQSGVPSRFSGSGSGTDFTLTISSLQPEDFATYYCQQTEYWPFTFGQGTKVEIKR shows pKd of 6 or higher.
false (0)
